Test system: HOP-92
Experiment: NCI tumour cell line growth inhibition, 48 h
Calls of active or inactive are those of the source. Cut-off read from the data, not from the text of the source: active = GI50 up to about 1.1 µM and inactive = higher.
Your reply should match one of these outcome classes. 1 = active, 0 = inactive

Cc1nc2ccccc2n1COC(Cn1ccnc1)c1ccc(Cl)cc1Cl (centres undefined)
0
O=C(c1ccccc1)c1cn(/N=C\c2ccccc2)c(=O)nc1-c1ccccc1
0
CSC(=S)N/N=C/c1ccccc1
0

Look up the recorded call for CN(C)C(=O)C(F)(F)C(c1ccc(C(F)(F)F)cc1)C1C(=O)N(C)C(=O)N(C)C1=O (centres undefined) in this test.
0

Look up the recorded call for O=P(CN1CCOCC1)(c1ccccc1)c1ccccc1 in this test.
0

Look up the recorded call for O=c1oc2ccccc2cc1P(=O)(O)O in this test.
0

Look up the recorded call for CCCCCCCCCCCCCC(=O)N(CCCCCCCCC)CC(O)C(O)C(OC1OC(CO)C(O)C(O)C1O)C(O)CO (centres undefined) in this test.
0

Look up the recorded call for CC(C)C1CNC(=O)C2(/C=N/C(C(C)C)CNC(=O)C3(/C=N/1)CCCO3)CCCO2 (centres undefined) in this test.
0

Look up the recorded call for C[C@]12CCC3c4ccc(O)cc4CC[C@H]3C1CC(=O)N(N)C2=O (some centres undefined) in this test.
0

The reported measurements were obtained from ChEMBL document CHEMBL1201862.
